FYI, the data here is from patent US20220017512A1.

TARGET OR TEST SYSTEM: recombinant human TRKA (G667C) (Homo sapiens, UniProt P04629, G667C)
Sequence (P04629 33-796 G667C): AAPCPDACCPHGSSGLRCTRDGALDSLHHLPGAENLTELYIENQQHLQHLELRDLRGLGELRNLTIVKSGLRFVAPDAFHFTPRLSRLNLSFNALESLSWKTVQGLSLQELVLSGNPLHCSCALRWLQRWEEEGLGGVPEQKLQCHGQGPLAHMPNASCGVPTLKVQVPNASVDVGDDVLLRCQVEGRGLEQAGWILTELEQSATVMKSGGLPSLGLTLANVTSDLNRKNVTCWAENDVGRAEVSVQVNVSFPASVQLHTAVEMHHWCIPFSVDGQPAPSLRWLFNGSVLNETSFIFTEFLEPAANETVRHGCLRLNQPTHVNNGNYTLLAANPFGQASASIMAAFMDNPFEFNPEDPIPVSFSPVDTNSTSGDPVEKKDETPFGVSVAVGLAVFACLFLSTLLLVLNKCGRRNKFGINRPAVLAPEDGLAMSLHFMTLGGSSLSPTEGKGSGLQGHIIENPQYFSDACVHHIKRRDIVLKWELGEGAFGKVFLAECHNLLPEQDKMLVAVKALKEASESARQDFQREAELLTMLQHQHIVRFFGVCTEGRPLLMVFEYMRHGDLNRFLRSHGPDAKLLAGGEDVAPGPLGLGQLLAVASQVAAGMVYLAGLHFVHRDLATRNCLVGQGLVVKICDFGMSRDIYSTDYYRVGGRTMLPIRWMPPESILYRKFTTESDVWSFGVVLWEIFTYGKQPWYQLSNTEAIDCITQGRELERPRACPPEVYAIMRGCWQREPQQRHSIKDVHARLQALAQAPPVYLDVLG
ASSAY PROCEDURE: In vitro activity test on mutant TRKA (G667C) (HTRF KinEASE TK)
MEASUREMENT PARAMETERS: 5.5 μM ATP, 30 min
pIC50: −log10 of the molar value.
MEASURE: pIC50

{"ITEM SMILES": "Fc1ccc(F)c([C@H]2C[C@H](F)CN2c2ccc3ncnc(-n4cc(C5CCNCC5)cn4)c3n2)c1", "MEASURE": "pIC50", "DATA VALUE": "> 8.00"}

Lab note: measured pIC50 of Fc1ccc(F)c([C@H]2C[C@H](F)CN2c2ccc3ncc(Cl)c(-c4cn(C5CCNCC5)nn4)c3n2)c1 was > 8.00

Noted for OCCN1CCC(n2cc(-c3c(Cl)cnc4ccc(N5C[C@@H](F)C[C@@H]5c5cc(F)ccc5F)nc34)cn2)CC1 : its pIC50 reads > 9.00
